# Lookup of reported pIC50 keyed by entry
- experimental-system: Cytochrome P450 1A1 (Homo sapiens, UniProt P04798)
- Sequence (P04798 whole entry): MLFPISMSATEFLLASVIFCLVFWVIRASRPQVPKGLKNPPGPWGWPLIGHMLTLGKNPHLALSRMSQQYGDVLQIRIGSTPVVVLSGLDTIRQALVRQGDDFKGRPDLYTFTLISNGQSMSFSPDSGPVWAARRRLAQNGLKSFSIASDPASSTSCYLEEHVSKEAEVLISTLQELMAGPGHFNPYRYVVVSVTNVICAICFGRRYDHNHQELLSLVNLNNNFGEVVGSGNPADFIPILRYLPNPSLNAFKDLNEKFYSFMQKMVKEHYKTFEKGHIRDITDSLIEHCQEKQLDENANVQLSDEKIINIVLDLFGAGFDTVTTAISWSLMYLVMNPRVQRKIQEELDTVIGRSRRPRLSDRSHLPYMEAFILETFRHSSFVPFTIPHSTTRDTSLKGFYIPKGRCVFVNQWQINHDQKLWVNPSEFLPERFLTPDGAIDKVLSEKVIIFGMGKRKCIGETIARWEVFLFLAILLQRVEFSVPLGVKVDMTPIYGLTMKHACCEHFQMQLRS
- measurement-description: Inhibition of human recombinant CYP1A1 using 7-ethoxyresorufin as substrate incubated under dark condition for 15 mins in presence of NADPH by EROD fluorescence assay
pIC50: −log10 of the molar value.
reported-metric: pIC50

structure-smiles-string	experimental-system	reported-metric	relation-sign	meas-value
Cc1cccc(-c2csc(C(=O)Nc3cc(Cl)cc(Cl)c3)n2)c1	Cytochrome P450 1A1 (Homo sapiens, UniProt P04798)	pIC50	=	5.63
N#Cc1cccc(-c2csc(C(=O)Nc3ccc(C(F)(F)F)cc3)n2)c1	Cytochrome P450 1A1 (Homo sapiens, UniProt P04798)	pIC50	=	7.67
COc1ccc(NC(=O)c2nc(-c3ccccc3)cs2)cc1	Cytochrome P450 1A1 (Homo sapiens, UniProt P04798)	pIC50	=	6.33
Cc1ccccc1-c1csc(C(=O)Nc2cc(Cl)cc(Cl)c2)n1	Cytochrome P450 1A1 (Homo sapiens, UniProt P04798)	pIC50	=	6.58
N#Cc1ccc(-c2csc(C(=O)Nc3cc(Cl)cc(Cl)c3)n2)cc1	Cytochrome P450 1A1 (Homo sapiens, UniProt P04798)	pIC50	<	4.00
NC(=O)c1cccc(-c2csc(C(=O)Nc3cc(Cl)cc(Cl)c3)n2)c1	Cytochrome P450 1A1 (Homo sapiens, UniProt P04798)	pIC50	=	5.87
